target: furin, P09958; assay: furin cleavage Z-score vs untreated control; higher = more cleavage, active = 3.5 or more, inactive = 1 or less, 8 variable residues between constant flanks; details: 30 min;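 also: purified furin at 1:10 enzyme:substrate in 50 mM HEPES pH 7.5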
Sequence (P09958 whole entry): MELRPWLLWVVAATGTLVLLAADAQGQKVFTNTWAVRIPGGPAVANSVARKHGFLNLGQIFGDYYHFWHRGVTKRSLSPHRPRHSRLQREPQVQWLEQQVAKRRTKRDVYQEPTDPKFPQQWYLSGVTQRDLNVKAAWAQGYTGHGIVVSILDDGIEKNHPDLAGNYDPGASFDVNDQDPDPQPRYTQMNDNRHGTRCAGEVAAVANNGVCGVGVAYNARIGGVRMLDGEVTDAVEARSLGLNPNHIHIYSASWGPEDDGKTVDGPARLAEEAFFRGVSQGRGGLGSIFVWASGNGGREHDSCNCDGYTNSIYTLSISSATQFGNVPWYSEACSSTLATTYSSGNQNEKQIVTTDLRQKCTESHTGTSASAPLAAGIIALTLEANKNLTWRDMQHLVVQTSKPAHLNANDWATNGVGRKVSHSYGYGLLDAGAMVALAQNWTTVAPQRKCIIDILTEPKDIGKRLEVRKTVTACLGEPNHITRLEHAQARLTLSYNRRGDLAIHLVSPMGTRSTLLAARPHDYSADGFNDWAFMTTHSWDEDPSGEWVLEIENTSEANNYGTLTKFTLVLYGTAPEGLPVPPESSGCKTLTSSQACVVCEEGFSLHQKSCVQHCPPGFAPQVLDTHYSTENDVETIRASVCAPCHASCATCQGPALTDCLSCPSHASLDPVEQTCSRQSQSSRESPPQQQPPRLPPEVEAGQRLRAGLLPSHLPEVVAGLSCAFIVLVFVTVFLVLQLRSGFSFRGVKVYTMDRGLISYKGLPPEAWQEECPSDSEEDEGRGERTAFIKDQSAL
The list shows a part of the results. The hit rate among all sequences tested is not known here.
Please provide measured furin cleavage Z-score for the entries that follow.
Lab note: jot down the number only; don't add units.

Given CASTGFTKVCAGNASASA [HC439] , state its recorded furin cleavage Z-score.
0.58

State the recorded furin cleavage Z-score for this entry: CAENPCHRPSAGNASASA [HC2341]
0.0102

What value of furin cleavage Z-score has been recorded for this entry: CAAKAKRRRSAGNASASA [FS-744]
8.83

Please report the recorded furin cleavage Z-score for CATAQRHRRYAGNASASA [FS-628] .
9.56

Param item = CADDVVCCSMAGNASASA [HC2111] ; retrieve measured furin cleavage Z-score.
-0.0395

Name the reported furin cleavage Z-score value associated with the sequence CAKDSRFFRYAGNASASA [FS-808]
1.08

Consider the sequence shown here: CAVIQMYTNVAGNASASA [HC709] What is its recorded furin cleavage Z-score?
-1.04

Ref: the supplement of paper PMC3545927
